Value source: PubChem BioAssay

target: Voltage-gated potassium channel subunit beta-2 (Rattus norvegicus) (UniProt P62483); experiment: KvBeta positive modulators, primary screen, biochemical, NADPH fluorescence (AID 623); conditions: Recombinant KvBeta, NADPH fluorescence decrease slope, 10 min; at 10 µM; active compounds read low;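 also: fluorescence intensity change per second fitted from 20 to 320 s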
Sequence (P62483 whole entry, looked up): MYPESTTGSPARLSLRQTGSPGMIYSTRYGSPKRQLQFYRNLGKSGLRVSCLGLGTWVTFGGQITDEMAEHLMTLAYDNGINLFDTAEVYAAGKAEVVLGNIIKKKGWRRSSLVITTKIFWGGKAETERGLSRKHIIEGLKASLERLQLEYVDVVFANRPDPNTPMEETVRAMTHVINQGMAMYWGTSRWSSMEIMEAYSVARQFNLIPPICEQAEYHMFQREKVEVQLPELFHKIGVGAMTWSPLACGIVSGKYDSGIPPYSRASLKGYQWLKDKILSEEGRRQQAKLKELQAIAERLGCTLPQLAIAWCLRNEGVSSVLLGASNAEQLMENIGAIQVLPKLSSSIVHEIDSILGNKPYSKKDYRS
measured.attribute: NADPH fluorescence slope
Could you keep your reply to the number by itself?

Give its NADPH fluorescence slope value. Item: `Cc1[nH]c(=O)[nH]c(=O)c1S(=O)(=O)N1CCCC1`
-0.000255

Give its NADPH fluorescence slope value. Item: `CCOC(=O)c1[nH]c2ccc(Br)cc2c1NC(=O)CCN1CCC(C(=O)OCC)CC1`
-2.9e-05

Give its NADPH fluorescence slope value. Item: `CCNC(=O)N(C)c1nncnc1C(=O)NC`
-4.4e-05

Give its NADPH fluorescence slope value. Item: `COc1ccccc1C(=O)N1CCN(Cc2ccc3c(c2)OCO3)CC1`
-4e-05

Give its NADPH fluorescence slope value. Item: `CCC(NC(=O)Nc1ccc(O)cc1)(C(F)(F)F)C(F)(F)F`
-3.4e-05

Give its NADPH fluorescence slope value. Item: `Cc1ccc(S(=O)(=O)c2cc3c(=O)n4ccccc4nc3n(C)c2=N)cc1`
-3.3e-05

Give its NADPH fluorescence slope value. Item: `CCCCn1c(O)c(C=NCCCN(C)C)c(=O)[nH]c1=O`
2.3e-06

Give its NADPH fluorescence slope value. Item: CN1CCC2(CC1)C1CN(C)CC=C1C(C#N)=C(N)C2(C#N)C#N (centres undefined)
-8.7e-06

Give its NADPH fluorescence slope value. Item: `CN1C(=O)c2ccc(N(C)C)cc2C1=O`
-6.8e-05

Give its NADPH fluorescence slope value. Item: `O=c1cc(NCc2ccccc2)nc2n1CCCS2`
-0.000115

Give its NADPH fluorescence slope value. Item: `CCCSc1nc(C)c(CC(=O)O)c(=O)[nH]1`
-0.00012

Give its NADPH fluorescence slope value. Item: CCN(CC)CCCn1c(C)cc2c(c1=O)C(c1ccc(OC)c(OC)c1OC)C(C#N)=C(N)O2 (centres undefined)
-3.6e-05

Give its NADPH fluorescence slope value. Item: `COc1ccc(/C=N/n2cncn2)cc1COc1ccc(NC(C)=O)cc1`
3.3e-05

Give its NADPH fluorescence slope value. Item: `CCOCCN(C(=O)COC)c1cccc(OC)c1`
1.5e-05

Give its NADPH fluorescence slope value. Item: `Oc1ccc(Br)cc1-c1cc(-c2ccccc2F)[nH]n1`
-9.7e-05

Give its NADPH fluorescence slope value. Item: `Cc1c(C=NCCOCc2ccccc2)cnn1C`
-3e-05

Give its NADPH fluorescence slope value. Item: `C=CCOn1c(=O)c(-c2cc3ccccc3o2)[n+]([O-])c2ccccc21`
1.7e-05

Give its NADPH fluorescence slope value. Item: `O=C(CN1C(=O)c2ccccc2S1(=O)=O)c1ccccc1`
-9e-05

Give its NADPH fluorescence slope value. Item: `O=C(Nc1nc(NC(=O)c2ccco2)n(-c2ccccc2)n1)c1ccccc1`
-0.000125

Give its NADPH fluorescence slope value. Item: `Cc1nnc2c(NC(C)C)nc3ccccc3n12`
-5.9e-05

Give its NADPH fluorescence slope value. Item: `C=CCn1cnc2c(c1=O)c1nc3ccccc3nc1n2-c1ccc(Cl)cc1`
-1.8e-05

Give its NADPH fluorescence slope value. Item: COCCOCCOCCC(=O)NC1CC2CCC1(C)C2(C)C (centres undefined)
-1.1e-05

Give its NADPH fluorescence slope value. Item: `CCOc1nc(SCCOc2ccc(C)cc2)nc(N(C)C)n1`
3.1e-05

Give its NADPH fluorescence slope value. Item: `O=c1[nH]c(=O)n(Cc2ccco2)c2c1C(C(F)(F)F)(C(F)(F)F)N=C(c1ccco1)N2`
-5.4e-05
